From: patent US6458347B1

Readings of dexamethasone introduced into the compound that was released for the listed compounds
condition.description: serum, 37° C.; serum species and time not stated
Protocol: Each of compounds (24), (26), (28) and (30) (drug complexes) obtained in Example 8 was dissolved in physiological saline so that the concentration thereof in terms of dexamethasone was 80 μg/ml, to thereby obtain four solutions. 50 μl of each of the above-obtained four solutions was individually added to each of 250 μl of mouse serum and 250 μl of human serum, and the amounts of dexamethasone released from the respective compounds at 37° C. were determined as follows. […]

CCC(=O)N[C@H](C(=O)OCC(=O)[C@@]1(O)[C@H](C)C[C@H]2[C@@H]3CCC4=CC(=O)C=C[C@]4(C)[C@@]3(F)[C@@H](O)C[C@@]21C)[C@@H](C)CC; ≤ 10%

Turning now to a further record.
Consider the compound `CCC(=O)OCC(=O)[C@@]1(O)[C@H](C)C[C@H]2[C@@H]3CCC4=CC(=O)C=C[C@]4(C)[C@@]3(F)[C@@H](O)C[C@@]21C` and give its measured dexamethasone introduced into the compound that was released. ≥ 98%
